Taken from ChEMBL document CHEMBL5316301.

# target or system: Nicotinamide phosphoribosyltransferase (Homo sapiens, UniProt P43490)
# Sequence (P43490 whole entry): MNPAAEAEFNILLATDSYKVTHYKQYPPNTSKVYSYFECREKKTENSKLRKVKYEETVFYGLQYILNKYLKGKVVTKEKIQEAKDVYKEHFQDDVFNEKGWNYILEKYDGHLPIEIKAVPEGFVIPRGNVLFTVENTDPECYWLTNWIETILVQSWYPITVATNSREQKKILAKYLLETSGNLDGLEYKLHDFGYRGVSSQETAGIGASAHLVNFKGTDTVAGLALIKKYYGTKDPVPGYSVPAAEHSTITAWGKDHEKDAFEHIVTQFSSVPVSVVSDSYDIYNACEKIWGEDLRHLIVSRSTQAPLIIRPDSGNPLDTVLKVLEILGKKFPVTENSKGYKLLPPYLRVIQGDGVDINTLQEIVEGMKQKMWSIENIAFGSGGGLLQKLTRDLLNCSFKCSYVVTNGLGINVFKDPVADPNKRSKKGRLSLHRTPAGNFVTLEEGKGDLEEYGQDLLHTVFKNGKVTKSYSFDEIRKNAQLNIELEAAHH
# method summary: Inhibition of recombinant NAMPT (unknown origin) incubated for 60 mins by SpectraMax microplate reader analysis
Kindly supply the reported IC50 values for the records listed here.
Field: numeric (µM). Do not append units.

Can you share its IC50? I mean this compound: `O=C(NCCCCCCNc1nonc1/C(=N/O)Nc1ccc(F)c(Br)c1)c1ccc2nccn2c1` 0.0577

What value of IC50 has been reported for the following compound? `O=C(NCc1ccc(CNc2nonc2/C(=N/O)Nc2ccc(F)c(Br)c2)cc1)c1ccc2nccn2c1` 4.88

###

# method summary: Oral bioavailability in Sprague-Dawley rat at 25 mg/kg
# Format: ADME, organism-based
# test context: in vivo
attribute measured: bioavailability (%)
Field format: number, assumed %, no unit text.

What value of bioavailability has been reported for the following molecule? `O=C(NCCCCCCNc1nonc1/C(=N/O)Nc1ccc(F)c(Br)c1)c1ccc2nccn2c1` 52.5

###

Field: pIC50. Provide a value for each of the molecules that follow.
# target or system: Indoleamine 2,3-dioxygenase 1 (Homo sapiens, UniProt P14902)
# Sequence (P14902 whole entry): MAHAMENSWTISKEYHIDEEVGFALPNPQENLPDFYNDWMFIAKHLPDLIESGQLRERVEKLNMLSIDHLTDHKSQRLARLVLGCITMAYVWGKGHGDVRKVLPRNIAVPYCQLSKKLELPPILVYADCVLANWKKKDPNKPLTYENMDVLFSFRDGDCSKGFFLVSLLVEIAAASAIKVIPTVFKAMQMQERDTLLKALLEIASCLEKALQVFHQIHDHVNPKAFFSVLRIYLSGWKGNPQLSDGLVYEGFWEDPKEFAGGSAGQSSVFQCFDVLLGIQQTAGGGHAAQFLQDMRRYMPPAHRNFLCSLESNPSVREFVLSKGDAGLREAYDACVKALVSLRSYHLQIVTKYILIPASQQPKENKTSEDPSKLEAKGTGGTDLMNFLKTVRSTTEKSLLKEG
# method summary: Inhibition of human recombinant IDO1 assessed as reduction in N-formylkynurenine formation using L-tryptophan as substrate preincubated for 30 mins followed by substrate addition and measured after 10 mins by SpectraMax microplate reader analysis
# pIC50 = -log10(concentration in molar units)

Quick one: pIC50 for `O=C(NCCCCCNc1nonc1/C(=N/O)Nc1ccc(F)c(Br)c1)c1ccc2nccn2c1` ? 6.07

Quick check: pIC50 of `O=C(CCNc1nonc1/C(=N/O)Nc1ccc(F)c(Br)c1)Nc1ccc(CNC(=O)c2ccc3nccn3c2)cc1` ? 6.82

# input molecule: `O=C(CCCCNc1nonc1/C(=N/O)Nc1ccc(F)c(Br)c1)Nc1ccc(CNC(=O)c2ccc3nccn3c2)cc1` ; wanted: its pIC50 6.12

Look at this molecule and give its reported pIC50. `O=C(CCCNc1nonc1/C(=N/O)Nc1ccc(F)c(Br)c1)Nc1ccc(CNC(=O)c2ccc3nccn3c2)cc1` 6.14

// query pIC50 value for entry `O=C(NCCCCNc1nonc1/C(=N/O)Nc1ccc(F)c(Br)c1)c1ccc(CNC(=O)c2ccc3nccn3c2)cc1` 6.08

Data request, read-out pIC50, for `O=C(NCCCCNc1nonc1/C(=N/O)Nc1ccc(F)c(Br)c1)c1ccc2nccn2c1` 6.18

Field request: pIC50 | item: `O=C(NCCCCCCNc1nonc1/C(=N/O)Nc1ccc(F)c(Br)c1)c1ccc2nccn2c1` 6.63

###

# method summary: AUC in Sprague-Dawley rat at 25 mg/kg, po
# Format: ADME, organism-based
# Parameters: dose 25 mg/kg, route po
# test context: in vivo
attribute measured: AUC

Which value of AUC has been reported for `O=C(NCCCCCCNc1nonc1/C(=N/O)Nc1ccc(F)c(Br)c1)c1ccc2nccn2c1` in the records? 2530 ng·h/mL

###

# method summary: Apparent volume of distribution in Sprague-Dawley rat at 5 mg/kg, iv
# Assay type: ADME, organism-based
# test context: in vivo, read-out: Vz
attribute measured: Vd (L/kg)
Please state the figure in L/kg; there is no need to write the unit.

Query (compound): `O=C(NCCCCCCNc1nonc1/C(=N/O)Nc1ccc(F)c(Br)c1)c1ccc2nccn2c1` ; field requested: Vd 11.5

###

# System: A549
# method summary: cells
# test context: Homo sapiens, A549, 48 h
Kindly state pIC50 for each of the entries shown.
The meaning of pIC50 here: minus log10 of the concentration in molar units.

What value of measured pIC50 is listed for `O=C(/C=C/c1cccnc1)NCCCCC1CCN(C(=O)c2ccccc2)CC1` ? 4.28

Query (compound): `NS(=O)(=O)NCCNc1nonc1/C(=N/O)Nc1ccc(F)c(Br)c1` ; field requested: pIC50 4.21

Give the measured pIC50 of `O=C(NCCCCCCNc1nonc1/C(=N/O)Nc1ccc(F)c(Br)c1)c1ccc2nccn2c1` . 5.27
